// provenance: patent US11807625B2

# Assay summary: PK of compound of Formula (Ia) after single subcutaneous dose of solution formulations in beagle dogs
# Format: in vivo
# Assay conditions: male, beagle, dog, plasma, sc, 12 mg/kg, beagle dogs, SC 12 mg/kg, 400 mg/mL solution Z (3.13% poloxamer 188), 1334 h, Mean n = 3
# Procedure: Formulations containing the compound of Formula (Ia), or a pharmaceutically acceptable salt thereof, were prepared as solutions and optionally administered subcutaneously or intramuscularly to rats, rabbits, and/or dogs. A solution of about 400 mg/mL of the compound of Formula (Ia) having 17.00 w/w % water, 36.40 w/w % PEG 300, 35.20 w/w % of a sodium salt of a compound of Formula (Ia), 5.00 w/w % ethanol, and 6.40 w/w % poloxamer 188 was prepared. […]
Value type: concentration at 1334 h (nM)
// return numeric value only (unit: nM, not printed)

Using the record for CC(C)(C#Cc1ccc(-c2ccc(Cl)c3c(NS(C)(=O)=O)nn(CC(F)(F)F)c23)c([C@H](Cc2cc(F)cc(F)c2)NC(=O)Cn2nc(C(F)(F)F)c3c2C(F)(F)[C@@H]2C[C@H]32)n1)S(C)(=O)=O , report its concentration at 1334 h.
50.2

###

# Assay summary: PK of compound of Formula (Ia) after single subcutaneous dose of solution formulations in Wistar Han rats
# Format: in vivo
# Assay conditions: male, Wistar Han, rat, plasma, sc, 50 mg/kg, male Wistar Han rats, single SC 50 mg/kg, 400 mg/mL solution AA (6.25% poloxamer 188), mean ± SD, n = 4; read-out: AUC0-1008 h
Value type: AUC(0-t) (µM·h)
// return numeric value only (unit: µM·h, not printed)

Using the record for CC(C)(C#Cc1ccc(-c2ccc(Cl)c3c(NS(C)(=O)=O)nn(CC(F)(F)F)c23)c([C@H](Cc2cc(F)cc(F)c2)NC(=O)Cn2nc(C(F)(F)F)c3c2C(F)(F)[C@@H]2C[C@H]32)n1)S(C)(=O)=O , report its AUC(0-t).
136

###

# Assay summary: PK of compound of Formula (Ia) after single subcutaneous dose of solution formulations in Wistar Han rats
# Assay type: in vivo
# Assay conditions: male, Wistar Han, rat, plasma, sc, 50 mg/kg, Wistar Han rats, SC 50 mg/kg, 500 mg/mL solution X (5.00% ethanol, 1.91% poloxamer 188), 48.0 h, animals #1-#3
Value type: concentration at 48 h (nM)
// return numeric value only (unit: nM, not printed)

Using the record for CC(C)(C#Cc1ccc(-c2ccc(Cl)c3c(NS(C)(=O)=O)nn(CC(F)(F)F)c23)c([C@H](Cc2cc(F)cc(F)c2)NC(=O)Cn2nc(C(F)(F)F)c3c2C(F)(F)[C@@H]2C[C@H]32)n1)S(C)(=O)=O [compound of Formula (Ia)] , report its concentration at 48 h.
209

###

# Assay summary: PK of compound of Formula (Ia) after single subcutaneous dose of solution formulations in Wistar Han rats
# Type: in vivo
# Assay conditions: male, Wistar Han, rat, plasma, sc, 50 mg/kg, Wistar Han rats, SC 50 mg/kg, 400 mg/mL solution W (5.00% ethanol, 1.57% poloxamer 188), 3024 h, animals #1-#3
Value type: concentration at 3024 h (µM)
// return numeric value only (unit: µM, not printed)

Using the record for CC(C)(C#Cc1ccc(-c2ccc(Cl)c3c(NS(C)(=O)=O)nn(CC(F)(F)F)c23)c([C@H](Cc2cc(F)cc(F)c2)NC(=O)Cn2nc(C(F)(F)F)c3c2C(F)(F)[C@@H]2C[C@H]32)n1)S(C)(=O)=O , report its concentration at 3024 h.
0.145
